Target: Torsin-1A (Homo sapiens) (UniProt O14656)
Sequence (O14656 whole entry, looked up): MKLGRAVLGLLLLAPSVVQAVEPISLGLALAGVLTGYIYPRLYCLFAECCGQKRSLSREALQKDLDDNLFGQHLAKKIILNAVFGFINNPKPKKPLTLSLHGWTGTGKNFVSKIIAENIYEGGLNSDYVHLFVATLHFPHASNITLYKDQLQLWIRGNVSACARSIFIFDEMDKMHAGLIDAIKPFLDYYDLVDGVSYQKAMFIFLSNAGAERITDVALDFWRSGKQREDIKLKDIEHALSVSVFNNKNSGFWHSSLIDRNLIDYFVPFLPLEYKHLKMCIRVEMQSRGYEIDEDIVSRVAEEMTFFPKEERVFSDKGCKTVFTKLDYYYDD
Assay: TOR1A wild-type binding on microarray – cell lysate, small-molecule microarray, lysate, 635/667 nm, primary screen (AID 1149)
Conditions: COS7 hTOR1A-WT lysate, 635 nm fluorescence, higher = more signal
metric-name: composite z-score
// no unit, no text: just the number

Per the record, CN(C)C(=O)[C@@]1(Cc2ccccc2CN=[N+]=[N-])N=C(c2ccc(OCCCO)cc2)O[C@H]1c1ccccc1N=[N+]=[N-] has composite z-score of 0.504

Per the record, COC(=O)[C@@]1(Cc2ccccc2)[C@H]2c3cc(C(=O)N(C)C)n(Cc4ccc(C)o4)c3C[C@H]2CN1C(=O)c1ccccc1 has composite z-score of 0.125

Per the record, CCCCC(CC)C(O)C1C=CC2C(=O)N(c3ccccc3)C(=O)C2N1Nc1ccccc1F (stereo not given) has composite z-score of 0.136

Per the record, CC1CC/C=C\[C@H]2OC34C=CCN(C(C)(C)C)C(=O)[C@H]3N(CCCCCO)C(=O)[C@@H]4C2C(=O)O1 (stereo not given in full) has composite z-score of -0.201

Per the record, COc1ccc([Si](C)(C)[C@@H]2[C@@H](CCO)O[C@]3(C(=O)N(Cc4ccccc4)c4ccc(NC(=O)[C@H](C)O)cc43)[C@H]2C)cc1 has composite z-score of 1.05

Per the record, C=C(COC)/C(=C/C[C@H](OC(=O)c1ccncc1)c1ccccc1OCCO)c1cc(C(=O)OC)ccc1OC has composite z-score of 1.19

Per the record, C=CCC(OC(C)=O)[C@@H]1[C@@H](N(Cc2cccc3ccccc23)C(=O)Cc2ccc(F)cc2)c2cc(OCCCO)ccc2N1C(=O)c1ccc2ccccc2c1 (stereo not given in full) has composite z-score of -0.035

Per the record, COc1cc2c(cc1O)C(c1cccs1)N(Cc1cc3c(cc1Br)OCO3)CC2 (stereo not given) has composite z-score of 0.835

Per the record, CCOC(=O)C[C@H]1[C@H](OC(=O)c2ccc(C(=O)c3ccccc3)cc2)[C@@H](NC(=O)C2CCCCC2)c2cc(OCCCO)ccc2N1C(=O)c1ccc2ccccc2n1 has composite z-score of 0.772

Per the record, COC(=O)[C@@]1(Cc2ccc(OC)cc2)[C@H]2c3cc(C(=O)N4CCCC4)n(CCO)c3C[C@H]2CN1C(=O)c1ccccc1 has composite z-score of -0.48

###

Molecular target: Carbonic anhydrase 2 (Homo sapiens)
Experiment: compounds binding carbonic anhydrase 2 – biochemical, small-molecule microarray, Alexa647-labelled CAII, profiling panel (AID 1122)
Conditions: CAII-A647 binding fluorescence, higher = more signal
Decision: composite z-score >= 0.6 yields T, all other cases yield F.

(Q) Check if composite z-score >= 0.6 (inclusive). Item: O=C1[C@H]2C=C(I)[C@H](C[C@@H]2OCCOCCO)[C@@]12CO2
(A) F

(Q) Check if composite z-score >= 0.6 (inclusive). Item: COc1ccc([Si](C)(C)[C@@H]2[C@@H](CC(=O)N3Cc4ccccc4C[C@H]3CO)O[C@]3(C(=O)N(Cc4ccc(N5C(=O)c6cccc7cccc5c67)cc4)c4ccccc43)[C@H]2C)cc1
(A) F

(Q) Check if composite z-score >= 0.6 (inclusive). Item: CCC#CCN(Cc1ccccc1Br)[C@H](/C=C/C1CC1)[C@@H](O)Cc1ccccc1
(A) F

(Q) Check if composite z-score >= 0.6 (inclusive). Item: O=C(O)[C@@H]1C[C@@H]2C(=O)N3CCC[C@H]3C(=O)N2[C@@H]1c1ccc(O)cc1
(A) F

(Q) Check if composite z-score >= 0.6 (inclusive). Item: CCOC(=O)C[C@H]1[C@H](OC(=O)c2ccccc2-c2ccccc2)[C@@H](NC(=O)c2ccc3ccccc3n2)c2cc(OCCCO)ccc2N1C(=O)Cc1ccc(OC)cc1
(A) F

(Q) Check if composite z-score >= 0.6 (inclusive). Item: COCC(=C=CC[C@H](O)c1ccc(OCCO)cc1)CCO
(A) T

(Q) Check if composite z-score >= 0.6 (inclusive). Item: O=C(NCCN1CCOCC1)[C@@H]1c2ccccc2C(=O)N(C2Cc3ccccc3C2)[C@H]1c1ccc(CO)cc1
(A) F

(Q) Check if composite z-score >= 0.6 (inclusive). Item: CC(C)N1C(=O)c2ccccc2[C@@H](C(=O)NCCN2CCOCC2)[C@@H]1c1ccc(CO)cc1
(A) T

(Q) Check if composite z-score >= 0.6 (inclusive). Item: CCCNC(=O)[C@@H]1c2ccccc2C(=O)N(Cc2ccc(OC(F)(F)F)cc2)[C@H]1c1ccc(CO)cc1
(A) F

(Q) Check if composite z-score >= 0.6 (inclusive). Item: NC(=O)[C@@]1(Cc2ccccc2)COC(c2ccc(OCCCO)cc2)=N1
(A) T

(Q) Check if composite z-score >= 0.6 (inclusive). Item: O=C1NC(=O)C2C1C=CC(C(O)c1ccco1)N2Nc1ccc(Cl)cc1Cl (centres undefined)
(A) T

(Q) Check if composite z-score >= 0.6 (inclusive). Item: Cn1cccc1C(O)C1C=CC2C(=O)N(c3ccccc3)C(=O)C2N1Nc1ccccc1 (centres undefined)
(A) T

(Q) Check if composite z-score >= 0.6 (inclusive). Item: CCOc1cc(C(O)C2C=CC3C(=O)NC(=O)C3N2Nc2ccc(Cl)cc2Cl)ccc1O (centres undefined)
(A) T

(Q) Check if composite z-score >= 0.6 (inclusive). Item: NC(=O)NCC#Cc1ccc2c(c1)[C@]1(C(=O)N2)[C@H](C(=O)N2CCN(c3ncccn3)CC2)[C@H]2C(=O)O[C@H](c3ccccc3)[C@H](c3ccccc3)N2[C@@H]1c1ccc(O)cc1
(A) F

(Q) Check if composite z-score >= 0.6 (inclusive). Item: CCOC(=O)C1=CC[C@@H](c2ccccc2)N(S(=O)(=O)c2ccc(C)cc2)[C@H]1c1ccccc1
(A) F

(Q) Check if composite z-score >= 0.6 (inclusive). Item: COCCOC(=O)N1C(=O)[C@@]2(c3cc(C#CC4(O)CCCCCC4)ccc31)[C@H](C(=O)N1CCc3cc(OC)c(OC)cc3C1)[C@H]1C(=O)O[C@H](c3ccccc3)[C@H](c3ccccc3)N1[C@@H]2c1ccc(OCCO)cc1
(A) F

(Q) Check if composite z-score >= 0.6 (inclusive). Item: CC(C)c1ccc(NN2C(C(O)c3ccc(C#N)cc3)C=CC3C(=O)N(c4ccccc4)C(=O)C32)cc1 (centres undefined)
(A) F

(Q) Check if composite z-score >= 0.6 (inclusive). Item: CC(=O)NCCCC[C@@H]1NC(=O)[C@@H]2C[C@H](C(=O)NCCCCCN)[C@H](c3ccc(O)cc3)N2C1=O
(A) F

###

Assay: probe aXIP binding to arrayed compounds – biochemical, NeuroSMM set, 635/667 nm fluorescence, primary screen (AID 1119);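 also: probe is the protein aXip251-270 applied at 1 µg/mL to compound-printed slides; binding of probe to printed compounds measured as 667 nm fluorescence plus signal to noise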
Settings: small-molecule microarray, higher = more signal, called active from +8 up or from −8 down
Decision: composite Z-score >= 0.3 yields fulfilled, all other cases yield not fulfilled.

(Q) Check if composite Z-score >= 0.3 (inclusive). Item: COCC(=C=CC[C@H](O)c1ccc(CO)o1)CCO
(A) fulfilled

(Q) Check if composite Z-score >= 0.3 (inclusive). Item: CC(=O)N1CC2(CC2)CC1c1ccccc1 (configuration not stated)
(A) not fulfilled

(Q) Check if composite Z-score >= 0.3 (inclusive). Item: C=CCN1C(=O)[C@]2(CCS(=O)(=O)c3ccccc3)N=C(c3ccc(OCCCO)cc3)O[C@@H]2c2ccccc21
(A) not fulfilled

(Q) Check if composite Z-score >= 0.3 (inclusive). Item: C=CCOC(=O)[C@@]1(Cc2ccccc2)C[C@H]2CO[C@H](c3ccc(OC)cc3)N2C1=O
(A) not fulfilled

(Q) Check if composite Z-score >= 0.3 (inclusive). Item: CCCCC(=C=CC[C@H](O)c1ccc(OCCO)cc1)CCO
(A) not fulfilled

(Q) Check if composite Z-score >= 0.3 (inclusive). Item: COCCOC(=O)N1C(=O)[C@@]2(c3cc(C#CCCO)ccc31)[C@H](C(=O)Nc1nc3ccccc3s1)[C@H]1C(=O)O[C@H](c3ccccc3)[C@H](c3ccccc3)N1[C@@H]2c1ccc(O)cc1
(A) fulfilled

(Q) Check if composite Z-score >= 0.3 (inclusive). Item: COc1ccc(C#Cc2ccc3c(c2)[C@]2(C(=O)N3)[C@H](C(=O)O)[C@H]3C(=O)O[C@H](c4ccccc4)[C@H](c4ccccc4)N3[C@@H]2c2ccc(O)cc2)cc1
(A) not fulfilled

(Q) Check if composite Z-score >= 0.3 (inclusive). Item: C[C@@H]1NC(=O)[C@@H](Cc2ccccc2)NC(=O)[C@@]23C(=O)N[C@@H](Cc4ccccc4)C2[C@H](C)[C@@]2(C)O[C@H]2C3/C=C/C/C=C\CNC1=O (some centres not stated)
(A) not fulfilled

(Q) Check if composite Z-score >= 0.3 (inclusive). Item: COc1ccc([Si](C)(C)[C@@H]2[C@@H](CCO)O[C@]3(C(=O)N(Cc4ccccc4)c4ccc(N5CCOC5=O)cc43)[C@H]2C)cc1
(A) fulfilled

(Q) Check if composite Z-score >= 0.3 (inclusive). Item: CC1=C2[C@@H](CCc3ccccc3)OB(O)C[C@@H]2[C@@H]2C(=O)N(C)C(=O)[C@@H]2C1
(A) fulfilled

(Q) Check if composite Z-score >= 0.3 (inclusive). Item: CCOC(=O)C[C@H]1[C@H](OC(=O)Cc2ccc3c(c2)OCO3)[C@@H](NC(=O)C2CCCCC2)c2cc(OCCCO)ccc2N1C(=O)c1ccccc1
(A) fulfilled

(Q) Check if composite Z-score >= 0.3 (inclusive). Item: COc1cc(OC)c(C(O)C2C=CC3C(=O)N(Cc4ccccc4)C(=O)C3N2n2cnnc2)cc1Br (configuration not stated)
(A) not fulfilled
